assay: Quantitative High-Throughput drug screen in 47 multiple myeloma cell lines against the NCATS MIPE library collection: MMM1_PLB cell viability assay (AID 1918976); settings: MMM1 myeloma cells viability, CellTiter-Glo, 48 h; series mostly up to 45.8 µM; further: potency means the concentration at half of the fitted maximal effect; nearly all actives have a fitted effect of over 35% in size
Records with an inconclusive call do not appear. The source made the active and inactive calls. The call rests on the fitted dose curve; in most records, active means well fitted cell-killing curve with a large enough effect; inconclusive means small, poorly fitted or top-dose-only effect, or effect the other way; inactive means no such curve, though single readings can be large or run the other way.
Can you tell me Potency for the items I'm about to list?

Form field Potency, entry "N=C1SC(=Cc2ccc(-c3ccc4c(c3)C(=O)NC4=O)o2)C(=O)N1c1ccc(Br)cc1" : 3.32 µM (active)

Form field Potency, entry CC[C@@H]([C@H](C)O)n1ncn(-c2ccc(N3CCN(c4ccc(OCC5CO[C@@](Cn6cncn6)(c6ccc(F)cc6F)C5)cc4)CC3)cc2)c1=O (stereo partly drawn) : 16.6 µM (active)

Form field Potency, entry "C[C@H]1COC2=C1C(=O)C(=O)c1c2ccc2c1CCCC2(C)C" : 13.2 µM (active)

Form field Potency, entry "CC(C)N(CCCNC(=O)Nc1ccc(C(C)(C)C)cc1)C[C@H]1O[C@@H](n2cc(Br)c3c(N)ncnc32)[C@H](O)[C@H]1O" : 18.7 µM (active)

Form field Potency, entry OC(c1cc(C(F)(F)F)nc2c(C(F)(F)F)cccc12)C1CCCCN1 (stereo not drawn) : 23.5 µM (active)

Form field Potency, entry "CCOC(=O)N1c2ccc(C(F)(F)F)cc2[C@@H](N(Cc2cc(C(F)(F)F)cc(C(F)(F)F)c2)C(=O)OC)C[C@H]1CC" : 8.33 µM (active)

Form field Potency, entry "Cc1ccc(S(=O)(=O)Nc2nc3ccccc3nc2Nc2ccc3nsnc3c2)cc1" : 3.63 µM (active)

Form field Potency, entry CC1C(=O)OC2C(O)C34C5CC(C(C)(C)C)C36C(OC(=O)C6O)OC4(C(=O)O5)C12O (stereo not drawn) : 0.0187 µM (active)
